assay details: In vivo pharmacokinetic study in rats after single administration
condition notes: male, Sprague Dawley, rat, plasma, 300 mg/kg, 300 mpk oral administration
quantity name: half-life
Note: a bare number is incomplete; add the unit.

Record request: half-life value, item COCCN1C[C@@H](n2ccc(F)c2)[C@H](NC(=O)Nc2c(C)c(-c3cnc(C4(F)COC4)nc3)nn2-c2ccccc2)C1 3.25 h

###

assay details: In vivo pharmacokinetic study in mice after single administration
Design: species or system CD-1 mice
condition notes: male, CD-1, mouse, plasma, 100 mg/kg, 100 mpk oral administration
Protocol: Male CD-1 mice were used as test animals, the concentration of the compound in blood was determined after single administration to evaluate the pharmacokinetic behavior. CD-1 mice (male, 20-40 g, 6-9 weeks, Shanghai Sippr-Bk Laboratory Animal Co., Ltd.) […]
quantity name: AUC(0-inf) (µM·h)
Reply with just the number (in µM·h).

// lookup AUC(0-inf) for COCCN1C[C@@H](n2ccc(F)c2)[C@H](NC(=O)Nc2c(C)c(-c3cnc(C4(F)COC4)nc3)nn2-c2ccccc2)C1 [Compound of formula (I)] 37.6
